# Subject of test: UniProt P61074
# Sequence (whole entry): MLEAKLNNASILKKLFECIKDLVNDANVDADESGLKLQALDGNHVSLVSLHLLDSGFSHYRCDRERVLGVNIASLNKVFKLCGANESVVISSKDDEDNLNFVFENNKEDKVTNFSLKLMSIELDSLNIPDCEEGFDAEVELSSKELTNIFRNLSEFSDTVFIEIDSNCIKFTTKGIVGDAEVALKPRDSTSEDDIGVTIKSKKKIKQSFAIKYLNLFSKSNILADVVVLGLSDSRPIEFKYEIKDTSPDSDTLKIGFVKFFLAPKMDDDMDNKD
# Measurement notes: IC50 for competition of protein binding to Kinobeads;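 also: native unpurified kinases from lysate captured on beads bearing immobilized kinase inhibitors, with bead-bound kinases quantified by mass spectrometry across compound doses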
# Condition summary: assay detail: Kinobeads competition in P. falciparum blood-stage lysate
pIC50: −log10 of the molar value.
Endpoint name: pIC50

What measured pIC50 goes with O=c1[nH]c2ccc(Cl)cc2c(NC2CN3CCC2CC3)c1-c1nc2ccccc2[nH]1 (stereo unspecified) ?
< 4.70

* * *

# Subject of test: UniProt Q7K6A0
# Measurement notes: IC50 for competition of protein binding to Kinobeads
# Condition summary: assay detail: Kinobeads competition in P. falciparum blood-stage lysate
Endpoint name: pIC50
Here pIC50 is given on a logarithmic scale as minus log10 of the concentration in mol/L.

// map O=c1[nH]c2ccc(Cl)cc2c(NC2CN3CCC2CC3)c1-c1nc2ccccc2[nH]1 (stereo unspecified) to recorded pIC50 (system: UniProt Q7K6A0)
6.06

* * *

# Subject of test: UniProt Q8IAU1
# Measurement notes: IC50 for competition of protein binding to Kinobeads
# Condition summary: assay detail: Kinobeads competition in P. falciparum blood-stage lysate
pIC50: −log10 of the molar value.
Endpoint name: pIC50

What measured pIC50 goes with O=c1[nH]c2ccc(Cl)cc2c(NC2CN3CCC2CC3)c1-c1nc2ccccc2[nH]1 (stereo unspecified) [CHIR-124] ?
< 4.70

* * *

# Subject of test: UniProt C6KT50
# Sequence (whole entry): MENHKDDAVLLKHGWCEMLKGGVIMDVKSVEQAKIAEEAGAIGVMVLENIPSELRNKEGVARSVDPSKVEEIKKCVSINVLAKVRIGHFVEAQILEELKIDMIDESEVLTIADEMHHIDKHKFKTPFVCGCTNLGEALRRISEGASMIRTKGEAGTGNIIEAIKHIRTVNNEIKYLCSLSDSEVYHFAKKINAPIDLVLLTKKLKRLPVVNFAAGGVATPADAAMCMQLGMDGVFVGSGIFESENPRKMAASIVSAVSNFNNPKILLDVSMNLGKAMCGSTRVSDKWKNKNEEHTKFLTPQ
# Measurement notes: IC50 for competition of protein binding to Kinobeads
# Condition summary: assay detail: Kinobeads competition in P. falciparum blood-stage lysate
pIC50: −log10 of the molar value.
Endpoint name: pIC50

// map O=c1[nH]c2ccc(Cl)cc2c(NC2CN3CCC2CC3)c1-c1nc2ccccc2[nH]1 (stereo unspecified) [CHIR-124] to recorded pIC50 (system: UniProt C6KT50)
< 4.70

* * *

# Subject of test: UniProt Q8IHU0
# Measurement notes: IC50 for competition of protein binding to Kinobeads
# Condition summary: assay detail: Kinobeads competition in P. falciparum blood-stage lysate
pIC50: −log10 of the molar value.
Endpoint name: pIC50

What measured pIC50 goes with O=c1[nH]c2ccc(Cl)cc2c(NC2CN3CCC2CC3)c1-c1nc2ccccc2[nH]1 (stereo unspecified) [CHIR-124] ?
< 4.70
